The entries below come with measured remaining at 0.5 h, 5 μM values attached.
- Measurement Description: Plasma stability
- Stated Conditions: human
*1 amine or outer side, *2 acyl side, *3 side chain or, on linkers, in order; H or OH if unused. Where a SMILES comes first, the peptide text is derived from it. Bridges are numbered along the chain shown (N, C = ends). [ ]: non-standard residue; d: D form. The star is where a group is joined. X2 = NCCCC[C@H](N)C(=O)NCCCOCCOCCOCCCN*; Suc = O=C(CCC(=O)[*:2])[*:1]; X3 = CC(=O)NCCCOCCOCCOCCCN*
Give the quantity in %, number only.

- CSCC[C@H]1NC(=O)[C@@H](Cc2ccc(O)cc2)NC(=O)[C@H](NC(=O)CCC(=O)NCCCOCCOCCOCCCNC(C)=O)CSSC[C@H](C(=O)N[C@H](Cc2ccc(O)cc2)C(=O)N[C@H](CCC(=O)O)C(N)=O)NC(=O)[C@@H](CC(=O)O)NC(=O)[C@@H](Cc2ccc(O)cc2)NC(=O)[C@@H](Cc2c[nH]c3ccccc23)NC(=O)[C@@H](Cc2ccccc2)NC1=O [Peptide B05, Ac-TTDS-(cymfwydc)-ye-NH2] ({X3-Suc}-[dC][dY][dM][dF][dW][dY][dD][dC][dY][dE]-NH2; disulfide 1-8): 112
- CC[C@@H](C)[C@@H](NC(=O)[C@@H](CO)NC(C)=O)C(=O)N[C@H](CCSC)C(=O)N[C@H](Cc1ccccc1)C(=O)N[C@H](Cc1c[nH]c2ccccc12)C(=O)N[C@H](Cc1ccc(O)cc1)C(=O)N[C@H](CC(=O)O)C(=O)N[C@H](CCC(=O)O)C(=O)N[C@H](Cc1ccc(O)cc1)C(=O)N[C@H](CCC(=O)O)C(N)=O [Peptide B07, Ac-simfwydeye-NH2] (Ac-[dS][dI][dM][dF][dW][dY][dD][dE][dY][dE]-NH2): 89

Problem: Quick check: remaining at 0.5 h, 5 μM of CSCC[C@H]1NC(=O)[C@@H](Cc2ccc(O)cc2)NC(=O)[C@H](NC(=O)CCC(=O)NCCCOCCOCCOCCCNC(=O)[C@@H](N)CCCCN)CSSC[C@H](C(=O)N[C@H](Cc2ccc(O)cc2)C(=O)N[C@H](CCC(=O)O)C(N)=O)NC(=O)[C@@H](CC(=O)O)NC(=O)[C@@H](Cc2ccc(O)cc2)NC(=O)[C@@H](Cc2c[nH]c3ccccc23)NC(=O)[C@@H](Cc2ccccc2)NC1=O [Peptide B06, K-TTDS-(cymfwydc)-ye-NH2] ({X2-Suc}-[dC][dY][dM][dF][dW][dY][dD][dC][dY][dE]-NH2; disulfide 1-8) ?
Result: 93

---

Documented solubility across a set of substances
- Measurement Description: physchem
- Stated Conditions: pH 7.4, Solubility in PBS pH 7.4

* Ac-PMKFDVWDLYFEIVW-NH2 [Peptide A02] | ≥ 25 µM

Problem: Field request: solubility | item: H-ERMEFDVWDLYFEIVW-NH2 [Peptide A09]
Result: ≥ 25 µM

---

- Measurement Description: physchem
- Stated Conditions: pH 7.4, Aqueous solubility
Where a SMILES comes first, the peptide text is derived from it. [ ]: non-standard residue; d: D form.
Observation Type: solubility (µM)
Provide only the numeric value, understood in µM.

Problem: Given the entry CC[C@@H](C)[C@@H](NC(=O)[C@@H](CS)NC(C)=O)C(=O)N[C@H](CCSC)C(=O)N[C@H](Cc1ccccc1)C(=O)N[C@H](Cc1c[nH]c2ccccc12)C(=O)N[C@H](Cc1ccc(O)cc1)C(=O)N[C@H](CC(=O)O)C(=O)N[C@H](CCC(=O)O)C(=O)N[C@H](Cc1ccc(O)cc1)C(=O)N[C@H](CCC(=O)O)C(N)=O [Peptide B03, Ac-cimfwydeye-NH2] (Ac-[dC][dI][dM][dF][dW][dY][dD][dE][dY][dE]-NH2) , report its measured solubility.
Result: 114

---

Property: level at 20 min; scope: individual substances
- Measurement Description: in vivo
- Stated Conditions: C57BL/6, mouse, iv
Where no end group is shown, it is not given here.
Provide the reading as a plain figure in ng/mL.

* Ac-WDLYFEIVWE [Peptide A06] | 15600
* Ac-PMKFDVWDLYFEIVW-NH2 [Peptide A02] | 2740
* H-ERMEFDVWDLYFEIVW-NH2 [Peptide A09] | 119

Problem: Sample Ac-RMKFDVWDLYFEIVW-NH2 [Peptide A01] — what was its level at 20 min?
Result: 145

Problem: Requested field: level at 20 min. Item: Ac-WDLYFEIVW-NH2 [Peptide A05]
Result: 101

---

Each entry below carries its reported level at 5 min.
- Measurement Description: in vivo
- Stated Conditions: C57BL/6, mouse, ip
Where no end group is shown, it is not given here.
Give just the numeric value; ng/mL need not be written.

* H-ERMEFDVWDLYFEIVW-NH2 [Peptide A09] | 34
* Ac-WDLYFEIVWE [Peptide A06] | 6440
* Ac-PMKFDVWDLYFEIVW-NH2 [Peptide A02] | 273

Kindly consider the entry below.
Problem: Would you mind telling me what level at 5 min value was observed for Ac-WDLYFEIVW-NH2 [Peptide A05] ?
Result: 119

---

- System: FVIII deficient plasma
- Measurement Description: Defined Dual-Pathway Thrombin Generation Assay (DDPTGA, reagent C high), FVIII deficient plasma
- Format: biochemical, human
- Stated Conditions: peptide 50 μM; FVIII deficient plasma
Observation Type: Peak Time FVIII EU

Problem: Would you mind telling me what Peak Time FVIII EU value was observed for Ac-WDLYFEISW-ttds-E [Peptide A15] ?
Result: 14.4 mU/ml

---

This listing pairs substances with measured solubility kinetic.
- Measurement Description: physchem
- Stated Conditions: pH 7.4
Return type: number; implicit unit µM.

- Ac-VWDLYFEIVW-NH2 [Peptide A19]: 14
- Ac-WDLYFEIVW-NH2 [Peptide A05]: 6
- Ac-RMDFDVWDLYFEIVW-NH2 [Peptide A03]: 110
- H-ERMEFDVWDLYFEIVW-NH2 [Peptide A09]: 63
- Ac-PMKFDVWDLYFEIVW-NH2 [Peptide A02]: 35

--- query ---
Problem: Which solubility kinetic is reported for this substance? Ac-RMKFDVWDLYFEIVW-NH2 [Peptide A01]
Result: 9

---

- Measurement Description: Acute toxicology in mice
- Assay type: in vivo, mouse
- Stated Conditions: C57BL/6, mouse, in vivo, iv; 60 minutes following administration; read-out: Max dose within toxicity category: No detected toxicity
Where a SMILES comes first, the peptide text is derived from it. [ ]: non-standard residue; d: D form.
Observation Type: NOAEL at 1 h (mg/kg)
Please respond with the number in mg/kg and leave the unit unwritten.

Problem: Recorded NOAEL at 1 h of CC[C@@H](C)[C@@H](NC(=O)[C@@H](CS)NC(C)=O)C(=O)N[C@H](CCSC)C(=O)N[C@H](Cc1ccccc1)C(=O)N[C@H](Cc1c[nH]c2ccccc12)C(=O)N[C@H](Cc1ccc(O)cc1)C(=O)N[C@H](CC(=O)O)C(=O)N[C@H](CCC(=O)O)C(=O)N[C@H](Cc1ccc(O)cc1)C(=O)N[C@H](CCC(=O)O)C(N)=O [Peptide B03, Ac-cimfwydeye-NH2] (Ac-[dC][dI][dM][dF][dW][dY][dD][dE][dY][dE]-NH2) , please.
Result: 1.5

---

# solubility per record follows
- Measurement Description: physchem
- Stated Conditions: pH 7.4, Aqueous solubility
Where no end group is shown, it is not given here.
API: value field is a number in µM; no unit string.

Here's what some known entries look like.
* Ac-WDLYFEIVWE [Peptide A06] | 164
* Ac-WDLYFEIVW-NH2 [Peptide A05] | 6
* Ac-RMKFDVWDLYFEIVW-NH2 [Peptide A01] | 9

Problem: Look at this substance and give its reported solubility. Ac-PMKFDVWDLYFEIVW-NH2 [Peptide A02]
Result: 35

Problem: # solubility lookup, item H-ERMEFDVWDLYFEIVW-NH2 [Peptide A09]
Result: 63

---

- Measurement Description: in vitro
- Type: in vitro ADME
- Stated Conditions: mouse, microsomes, pH 7.4
Where no end group is shown, it is not given here.
Observation Type: remaining at 0.5 h, 1 μM (%)
Give just the number in %; leave the unit off.

Take a look at these entries with their results.
* Ac-WDLYFEIVWE [Peptide A06] | 49
* H-ERMEFDVWDLYFEIVW-NH2 [Peptide A09] | 23
* Ac-RMKFDVWDLYFEIVW-NH2 [Peptide A01] | 30

Next substance, remaining at 0.5 h, 1 μM to be filled in.
Problem: I'd like to know its remaining at 0.5 h, 1 μM. The substance in question is Ac-PMKFDVWDLYFEIVW-NH2 [Peptide A02]
Result: 45
